Target: T1, monovalent hVISTA-ECD (human VISTA extracellular domain with His tail) (human, UniProt Q9H7M9 33-193)
T1 construct: analyte flowed over captured antibody; also called huVISTA-His
T1 sequence (Q9H7M9 other isoform, or with tags, fused parts or gaps limits assumed): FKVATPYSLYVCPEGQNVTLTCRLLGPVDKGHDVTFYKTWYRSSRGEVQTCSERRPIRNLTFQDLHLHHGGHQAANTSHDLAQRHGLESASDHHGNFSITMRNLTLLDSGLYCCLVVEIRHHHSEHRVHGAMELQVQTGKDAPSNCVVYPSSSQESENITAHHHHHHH
Test: SPR, pH 7.4
Note to self: use true only for Kd readings below 7 nM; a reading exactly at 7 nM still gets false.

{"binder": "P1-064540 (41F11_VH_T28P/Y50W/S55E/A60H/Y100E) (antibody, V domains shown, Kabat positions; also called P1-064540-1) VH: QVQLVESGGGLVKPGGSLRLSCAASGFPFSDYYMSWIRQAPGKGLEWVSWISNSGEPIYYHDSVKGRFTISRDNAKNSLYLQMNSLRAEDTAVYYCARDLPGWEFDLWGRGTLVTVSS VL: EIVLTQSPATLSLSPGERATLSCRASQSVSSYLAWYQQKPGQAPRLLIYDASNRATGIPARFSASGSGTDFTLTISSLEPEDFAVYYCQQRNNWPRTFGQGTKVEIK", "qualitative_label": "true"}
{"binder": "P1-065316 (41F11_VH_A60H VK A64G) (antibody, V domains shown, Kabat positions; also called P1-065316-1) VH: QVQLVESGGGLVKPGGSLRLSCAASGFTFSDYYMSWIRQAPGKGLEWVSYISNSGSPIYYHDSVKGRFTISRDNAKNSLYLQMNSLRAEDTAVYYCARDLPGWYFDLWGRGTLVTVSS VL: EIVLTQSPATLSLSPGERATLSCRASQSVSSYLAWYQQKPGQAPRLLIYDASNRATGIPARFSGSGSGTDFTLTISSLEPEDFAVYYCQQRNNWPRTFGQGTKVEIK", "qualitative_label": "true"}
{"binder": "P1-064484 (41F11_VH_L96E) (antibody, V domains shown, Kabat positions; also called P1-064484-1) VH: QVQLVESGGGLVKPGGSLRLSCAASGFTFSDYYMSWIRQAPGKGLEWVSYISNSGSPIYYADSVKGRFTISRDNAKNSLYLQMNSLRAEDTAVYYCARDEPGWYFDLWGRGTLVTVSS VL: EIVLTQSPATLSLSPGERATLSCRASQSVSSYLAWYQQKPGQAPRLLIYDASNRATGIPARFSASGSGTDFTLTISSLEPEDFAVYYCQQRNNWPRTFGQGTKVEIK", "qualitative_label": "false"}
{"binder": "P1-064472 (41F11_VH_F27E) (antibody, V domains shown, Kabat positions; also called P1-064472-1) VH: QVQLVESGGGLVKPGGSLRLSCAASGETFSDYYMSWIRQAPGKGLEWVSYISNSGSPIYYADSVKGRFTISRDNAKNSLYLQMNSLRAEDTAVYYCARDLPGWYFDLWGRGTLVTVSS VL: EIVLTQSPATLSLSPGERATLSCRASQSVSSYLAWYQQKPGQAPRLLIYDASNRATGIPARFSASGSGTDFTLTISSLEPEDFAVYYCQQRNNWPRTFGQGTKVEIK", "qualitative_label": "true"}
{"binder": "P1-065319 (41F11_VH_F100aG VK_A64G) (antibody, V domains shown, Kabat positions; also called P1-065319-1) VH: QVQLVESGGGLVKPGGSLRLSCAASGFTFSDYYMSWIRQAPGKGLEWVSYISNSGSPIYYADSVKGRFTISRDNAKNSLYLQMNSLRAEDTAVYYCARDLPGWYGDLWGRGTLVTVSS VL: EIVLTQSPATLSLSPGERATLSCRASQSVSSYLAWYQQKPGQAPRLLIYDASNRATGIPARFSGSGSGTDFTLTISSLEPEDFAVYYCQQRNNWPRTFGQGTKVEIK", "qualitative_label": "false"}
{"binder": "P1-065333 (41F11_VH_T28P/Y50W/S55E/L96E/Y100E VK_A64G) (antibody, human IgG1, kappa, V domains shown, IgG1.3; also called P1-065333-1; VISTA.4 pH-independent progeny) VH: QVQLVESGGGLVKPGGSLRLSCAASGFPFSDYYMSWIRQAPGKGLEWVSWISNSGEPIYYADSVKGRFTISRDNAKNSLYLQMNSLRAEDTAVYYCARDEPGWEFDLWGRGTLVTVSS VL: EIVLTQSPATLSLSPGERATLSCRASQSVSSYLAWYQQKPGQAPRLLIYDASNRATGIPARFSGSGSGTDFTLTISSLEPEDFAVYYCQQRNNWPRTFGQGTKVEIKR", "qualitative_label": "true"}
{"binder": "P1-061528 (41F11 NGS mut VK_A64G/R91A) (antibody, V domains shown, also called P1-061528-2) VH: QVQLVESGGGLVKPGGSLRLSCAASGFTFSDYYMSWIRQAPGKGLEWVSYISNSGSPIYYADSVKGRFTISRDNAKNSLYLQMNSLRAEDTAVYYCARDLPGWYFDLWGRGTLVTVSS VL: EIVLTQSPATLSLSPGERATLSCRASQSVSSYLAWYQQKPGQAPRLLIYDASNRATGIPARFSGSGSGTDFTLTISSLEPEDFAVYYCQQANNWPRTFGQGTKVEIK", "qualitative_label": "false"}
{"binder": "P1-065312 (41F11_VH_F27E VK_A64G) (antibody, V domains shown, Kabat positions; also called P1-065312-1) VH: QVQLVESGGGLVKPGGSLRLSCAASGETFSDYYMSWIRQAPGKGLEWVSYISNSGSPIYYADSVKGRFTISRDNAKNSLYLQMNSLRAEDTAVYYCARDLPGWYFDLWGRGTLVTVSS VL: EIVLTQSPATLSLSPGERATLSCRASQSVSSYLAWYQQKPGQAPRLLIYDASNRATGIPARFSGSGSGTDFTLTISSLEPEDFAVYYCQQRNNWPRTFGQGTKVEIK", "qualitative_label": "true"}
{"binder": "P1-064480 (41F11_VH_A60H) (antibody, V domains shown, Kabat positions; also called P1-064480-1) VH: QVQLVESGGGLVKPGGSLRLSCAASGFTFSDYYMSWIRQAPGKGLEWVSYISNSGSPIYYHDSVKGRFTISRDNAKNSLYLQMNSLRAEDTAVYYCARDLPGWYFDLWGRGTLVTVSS VL: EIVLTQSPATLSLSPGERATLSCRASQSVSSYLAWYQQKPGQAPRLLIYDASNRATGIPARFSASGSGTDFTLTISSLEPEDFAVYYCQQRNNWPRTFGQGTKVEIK", "qualitative_label": "true"}

Hello, the source for this data is patent US20220073617A1, in case you need it.
